experiment: recombinant UMI read abundance after kanamycin selection (control-corrected) (log10(CPM+1)); higher = more efficient recombination; extreme values may be limits of the assay; sequences stand for … in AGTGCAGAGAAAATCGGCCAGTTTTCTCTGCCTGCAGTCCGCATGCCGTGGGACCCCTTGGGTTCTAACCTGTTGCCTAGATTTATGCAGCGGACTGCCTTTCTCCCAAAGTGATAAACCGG…AGGTTGGTTTCACT; site = the 11-nt donor
Can you tell me recombinant UMI read abundance (log10) for the items I'm about to list?
Numbers only.

# count of solved cases: 3
GCGTACGCATGGACCGGTTTTCCCGGTAATCCGTATTTGTT (site GCGTACGCTAA) | 1.84
CGGGCGTCATGGACCGGTTTTCCCGGTAATCCGTATTTGCC (site CGGGTGTCTGG) | 0
TGACTGGCATGGACCGGTTTTCCCGGTAATCCGTATTTGTA (site TGACTGGCTTA) | 1.34

Could you report recombinant UMI read abundance (log10) for every entry in the following list?
1. TCCAAGTCATGGACCGGTTTTCCCGGTAATCCGTATTTGCC (site TCCAACTCTGG)
2. CTGGAAACATGGACCGGTTTTCCCGGTAATCCGTATTTGAA (site CTGGAAACTTG)

0
0

====

experiment: recombinant barcode read abundance after kanamycin selection (control-corrected) (log10(CPM+1)); higher = more efficient recombination; sequences stand for … in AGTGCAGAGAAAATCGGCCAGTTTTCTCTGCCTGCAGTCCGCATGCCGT…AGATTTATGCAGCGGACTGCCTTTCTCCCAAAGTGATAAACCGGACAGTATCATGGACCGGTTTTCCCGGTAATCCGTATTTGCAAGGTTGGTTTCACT; site = the 11-nt target
Can you tell me recombinant barcode read abundance (log10) for the items I'm about to list?
Numbers only.

ATAGTTACTTGGGTTCTAACCTGTTGCCT (site ATGATTACTAG) | 0.129
CGACAATCTTGGGTTCTAACCTGTTGCTT (site TCTAGGACTTT) | 0.27
CAGTCAGCTTGGGTTCTAACCTGTTGCCT (site CAGTCAGCTAG) | 1.16
GCCGGTCCTTGGGTTCTAACCTGTTGCCT (site GCTGGTCCTAG) | 0.14
GTCCCTCCTTGGGTTCTAACCTGTTGCAT (site GTCCCTCCTAG) | 0.16
TCGGAGTCTTGGGTTCTAACCTGTTGCAT (site TCGGAGTCTAT) | 2.29

Could you report recombinant barcode read abundance (log10) for every entry in the following list?
1. TCACCGCCTTGGGTTCTAACCTGTTGCCT (site TCACCGCCTAG)
2. GAAATTCCTTGGGTTCTAACCTGTTGCCT (site GAAAATCCTAG)
3. TTCAGCCCTTGGGTTCTAACCTGTTGCCT (site TACAGCCCTAG)
4. GATTCTCCTTGGGTTCTAACCTGTTGCTT (site GATTCTCCTAT)
5. AGGAACTCTTGGGTTCTAACCTGTTGCAT (site GGGAACCCTAT)
6. TATCAGACTTGGGTTCTAACCTGTTGCAG (site TATCAGACTCT)
7. ATAGTTACTTGGGTTCTAACCTGTTGCCT (site ATAGTTACTAG)
8. CTGCTAGCTTGGGTTCTAACCTGTTGCAG (site CTGCTAGCTCT)

[0.172, 0.148, 0.456, 0.194, 0.0839, 1.45, 1.73, 1.08]

Could you report recombinant barcode read abundance (log10) for every entry in the following list?
1. ATCCAACCTTGGGTTCTAACCTGTTGCCT (site ATCCAGCCTAG)
2. AAGGGCTCTTGGGTTCTAACCTGTTGCTT (site GTCTCTCCTCT)

0.348
0.129

Could you report recombinant barcode read abundance (log10) for every entry in the following list?
1. CTTTGCCCTTGGGTTCTAACCTGTTGCCT (site CTTTGCCCTAG)
2. AGTAAGACTTGGGTTCTAACCTGTTGCGT (site AGTAAGACTAA)
3. ACTCACTCTTGGGTTCTAACCTGTTGCCT (site CGATCTCCTGT)
4. CCGAGTCCTTGGGTTCTAACCTGTTGCCT (site CCGATTCCTAG)
5. TCAGAAGCTTGGGTTCTAACCTGTTGCCG (site TCAGAAGCTCG)

1: 0.687; 2: 0.062; 3: 0.0794; 4: 1.2; 5: 0.689

Could you report recombinant barcode read abundance (log10) for every entry in the following list?
1. AAGTTGTCTTGGGTTCTAACCTGTTGCGT (site CAGTTGTCTAG)
2. TACGGGGCTTGGGTTCTAACCTGTTGCCT (site TACGCGGCTAG)
3. ACTTTAGCTTGGGTTCTAACCTGTTGCAG (site ACTTTAGCTCT)
4. CGTCTAGCTTGGGTTCTAACCTGTTGCAT (site CGTCTAGCTAT)
5. TAGCAGTCTTGGGTTCTAACCTGTTGCGC (site TAGCAGTCTGC)

1: 0.0897; 2: 0.139; 3: 0.694; 4: 0.255; 5: 2.05

====

Can you tell me recombinant UMI read abundance (log10) for the items I'm about to list?
test: recombinant UMI read abundance after kanamycin selection (control-corrected) (log10(CPM+1)); higher = more efficient recombination; extreme values may be limits of the assay; sequences stand for … in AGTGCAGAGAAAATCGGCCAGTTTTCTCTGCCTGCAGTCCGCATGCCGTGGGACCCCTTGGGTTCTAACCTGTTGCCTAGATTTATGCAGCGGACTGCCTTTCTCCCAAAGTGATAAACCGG…AGGTTGGTTTCACT; site = the 11-nt donor
One number for each entry.

CGTGCAACATGGACCGGTTTTCCCGGTAATCCGTATTTGTT (site CGTGCAACTAA) | 0.0114

Could you report recombinant UMI read abundance (log10) for every entry in the following list?
1. AGGACGACATGGACCGGTTTTCCCGGTAATCCGTATTTGCA (site AGGAGGACTTG)
2. TACTTGTCATGGACCGGTTTTCCCGGTAATCCGTATTTGCT (site TACTTGCCTAG)
3. CAAGCAGCATGGACCGGTTTTCCCGGTAATCCGTATTTGCT (site CAAGCACCTAG)

[1.38, 0.649, 0]

Note to self: recombinant UMI read abundance (log10) recorded for CCTTATACATGGACCGGTTTTCCCGGTAATCCGTATTTGGC (site CCTGATACTGC) was 0

====

experiment: recombinant UMI read abundance after kanamycin selection (control-corrected) (log10(CPM+1)); higher = more efficient recombination; extreme values may be limits of the assay; sequences stand for … in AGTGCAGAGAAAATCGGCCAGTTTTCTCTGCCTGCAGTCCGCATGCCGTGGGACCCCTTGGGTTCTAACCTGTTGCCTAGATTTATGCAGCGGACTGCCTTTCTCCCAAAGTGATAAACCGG…AGGTTGGTTTCACT; site = the 11-nt donor
Can you tell me recombinant UMI read abundance (log10) for the items I'm about to list?

# count of solved cases: 3
CCGTTTACATGGACCGGTTTTCCCGGTAATCCGTATTTGGT (site CCGTTTACTAT) | 0
GAGCTCACATGGACCGGTTTTCCCGGTAATCCGTATTTGAT (site GAGCTTACTAT) | 0.342
CGAGGATCATGGACCGGTTTTCCCGGTAATCCGTATTTGAC (site CGAGGATCTGT) | 2.99

Could you report recombinant UMI read abundance (log10) for every entry in the following list?
1. ACCGACTCATGGACCGGTTTTCCCGGTAATCCGTATTTGCC (site ACCGACTCTGG)
2. TAGAAAACATGGACCGGTTTTCCCGGTAATCCGTATTTGCA (site TAGAAGACTTG)
3. CGGAATCCATGGACCGGTTTTCCCGGTAATCCGTATTTGAC (site CGGAATCCTGT)
4. AAGCACGCATGGACCGGTTTTCCCGGTAATCCGTATTTGCG (site AAGCACGCTCT)
5. GTTCCCTCATGGACCGGTTTTCCCGGTAATCCGTATTTGTA (site GTTCCCTCTTA)
6. GACAAACCATGGACCGGTTTTCCCGGTAATCCGTATTTGTT (site GACAAACCTAA)

1.78
0.00894
1.1
0.766
2.5
0

====

test: recombinant barcode read abundance after kanamycin selection (control-corrected) (log10(CPM+1)); higher = more efficient recombination; sequences stand for … in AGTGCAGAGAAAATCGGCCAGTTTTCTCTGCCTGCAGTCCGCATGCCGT…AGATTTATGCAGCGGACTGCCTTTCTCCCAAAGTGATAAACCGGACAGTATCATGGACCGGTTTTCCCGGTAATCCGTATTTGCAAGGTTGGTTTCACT; site = the 11-nt target
Each entry falls into one class according to its recombinant barcode read abundance (log10); the ranges are label 0 = under 0.2, label 1 = from 0.2 up to 0.7, label 2 = 0.7 and over

CTCTACTCTTGGGTTCTAACCTGTTGCCT (site CTCTACTCTAG) | label 2
GAGCACCCTTGGGTTCTAACCTGTTGCCA (site GAGCTCACTTG) | label 0
CTTCGGGCTTGGGTTCTAACCTGTTGCAA (site CTTCGGACTTT) | label 1
TCCGCGACTTGGGTTCTAACCTGTTGCCT (site TCTGCGACTAG) | label 0
TAGGCGACTTGGGTTCTAACCTGTTGCTT (site TAGACGACTAA) | label 0
CTCCCGACTTGGGTTCTAACCTGTTGCGC (site CTCCCGACTGC) | label 2
ATACCACCTTGGGTTCTAACCTGTTGCCT (site AAACCACCTAG) | label 1
CGAACCTCTTGGGTTCTAACCTGTTGCCG (site CGAACCTCTCG) | label 2

Which class does AAGATAGCTTGGGTTCTAACCTGTTGCCT (site AAGAGAGCTAG) fall in?
label 0

All values here come from the supplement of paper PMC11208160.
